Data provenance is patent US20210386737A1.

- Assay Target: ERK2 kinase (Homo sapiens, UniProt P28482)
- Sequence (P28482 whole entry): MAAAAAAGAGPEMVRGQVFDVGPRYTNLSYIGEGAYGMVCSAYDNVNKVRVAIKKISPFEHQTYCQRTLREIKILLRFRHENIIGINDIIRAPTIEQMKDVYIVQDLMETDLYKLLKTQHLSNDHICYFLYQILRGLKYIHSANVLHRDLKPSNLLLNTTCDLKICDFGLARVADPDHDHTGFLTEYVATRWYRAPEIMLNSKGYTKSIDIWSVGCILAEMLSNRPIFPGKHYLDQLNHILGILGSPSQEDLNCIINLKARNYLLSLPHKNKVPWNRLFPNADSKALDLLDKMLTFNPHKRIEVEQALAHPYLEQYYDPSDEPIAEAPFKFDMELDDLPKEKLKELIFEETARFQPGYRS
pIC50: −log10 of the molar value.
Value Type: pIC50

COC[C@H]1Cn2cc(-c3nc(Nc4ccnn4C)ncc3C)nc2C(=O)N1Cc1ccc(F)c(F)c1 [AZD0364, reference compound] :: 8.40
